# target: Nuclear receptor subfamily 1 group I member 2 (Homo sapiens)
# measurement notes: ATG_PXR_TRANS: Attagene TRANS-FACTORIAL HepG2 Assay for human Pregnane X Receptor (PXR) (AID 2283008)
Records with an inconclusive call do not appear. Activity calls are given as the source filed them. The calls were made as follows: active = hit-call score of the fitted dose curve at least 0.9, where 1 is the maximum; inconclusive = response in the unintended direction; inactive = score below 0.9.
Respond using exactly one of the listed classes: active, inactive

Known results for compounds:
O=c1oc(=O)c2cc3c(=O)oc(=O)c3cc12    inactive
C=COCCOCCOCCOC=C    inactive
CC(C=O)Cc1ccc(C(C)C)cc1 (centres undefined)    inactive
COc1cc(C)cc(O)c1    inactive
c1ccc2[nH]ccc2c1    inactive
O=C(O)c1cccc([N+](=O)[O-])c1    inactive

For `CC(C)(N)CO` , which call appears in the assay record?
inactive

`NC(N)=NC(=O)c1nc(Cl)c(N)nc1N` , same question.
inactive

Follow-up item: `O=C(Nc1ccccc1)c1cc([N+](=O)[O-])ccc1Cl`
active

---

# measurement notes: TOX21_PR_BLA_Followup_Antagonist_viability: Viability Assessment in the Tox21 HEK293 Progesterone Receptor (PR) Antagonism Beta-lactamase Follow-Up Assay (AID 2283936);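 also: cells exposed to compound with R5020 agonist for 16 h; hits lower the luminescence signal meaning cytotoxicity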
Results filed as inconclusive are left out. Active and inactive are the calls of the source. The calls were made as follows: active = hit-call score of the fitted dose curve at least 0.9, where 1 is the maximum; inconclusive = response in the unintended direction; inactive = score below 0.9.
measured quantity: AC50

Consider the reported AC50 for these molecules:
C[C@H]1C[C@H]2[C@@H]3CCC4=CC(=O)C=C[C@]4(C)[C@@]3(F)[C@@H](O)C[C@]2(C)[C@@]1(O)C(=O)COP(=O)(O)O    inactive
C#C[C@]1(O)CC[C@H]2[C@@H]3CCC4=Cc5oncc5C[C@]4(C)[C@H]3CC[C@@]21C    inactive
O=c1cc(-c2ccccc2)oc2cc(O)cc(O)c12    inactive
C[C@H]1C[C@@H]2[C@H]([C@@H](O)C[C@@]3(C)[C@H]2CC[C@]3(O)C(=O)CO)[C@@]2(C)C=CC(=O)C=C12    inactive
COC(=O)C1=C(C)NC(C)=C(C(=O)OCCN(C)Cc2ccccc2)C1c1cccc([N+](=O)[O-])c1 (stereo unspecified)    72.7 µM (active)

Moving on to the next molecule.
Give its AC50 value. Item: `O=C(Oc1ccccc1)c1ccc(O)cc1`
inactive

---

# measurement notes: ATG_SREBP_CIS: Attagene CIS-FACTORIAL HepG2 Assay for human Sterol Regulatory Element Binding (SREBP) (AID 2282962)
# experimental conditions: HepG2 Attagene cis-factorial SREBP reporter, mRNA; actives raise or lower the signal
Calls of active or inactive are those of the source. The calls were made as follows: active = hit-call score of the fitted dose curve at least 0.9, where 1 is the maximum; inactive = score below 0.9.
Mark one answer only. Choices: active, inactive

Please review the entries below; each comes with its answer.
CO[Si](CCCn1c(=O)n(CCC[Si](OC)(OC)OC)c(=O)n(CCC[Si](OC)(OC)OC)c1=O)(OC)OC    inactive
COc1cc(C)cc(O)c1    inactive
CCc1c(C)cc(N)c(CC)c1N    inactive

# ---- query compound ----
Which result was noted for this compound in the test: c1cc(C(c2ccc(OCC3CO3)cc2)c2ccc(OCC3CO3)cc2)ccc1OCC1CO1 (centres undefined)
active

---

# measurement notes: ATG_TCF_b_cat_CIS: Attagene CIS-FACTORIAL HepG2 Assay for human T-Cell-Factor with beta-catenin (TCF/b-cat) (AID 2282965)
# experimental conditions: HepG2 TCF/beta-catenin cis-reporter transcription, actives raise or lower the signal
The source made the active and inactive calls. Rule for the calls: active = hit-call score of the fitted dose curve at least 0.9, where 1 is the maximum; inactive = score below 0.9.
Answer with one of the outcomes given here: active, inactive

Hey, what did the test say about `NCCCN1CCOCC1` ?
inactive

And `O=C(Cl)c1cccc(C(=O)Cl)c1` ?
inactive

Quick one: `CCCc1ccccc1O`
inactive

Now the same for `CCOC(=S)SSC(=S)OCC`
inactive

What do we get for `Cc1c(Cl)c(=O)oc2cc(O)ccc12` ?
inactive

And `Cc1ccc2n[nH]nc2c1` ?
inactive

Consider next the compound `CCCCc1ccc(N)cc1` in the same way.
active

Field entry: `CCCCCOC(=O)CCC`
inactive

Next compound: `NC(=O)c1ccccc1Cl`
active

// next record `COc1cccc(OC)c1`
inactive

Further, for `O=C(O)CN(CCN(CC(=O)O)CC(=O)O)CCN(CC(=O)O)CC(=O)O` ?
inactive

Now the same for `Clc1nc(C(Cl)(Cl)Cl)c(Cl)c(Cl)c1Cl`
active

Consider next the compound `C[Si](O[Si](C)(C)C)O[Si](C)(C)C` in the same way.
inactive

Continue with `CC(=O)Nc1ccc(C)cc1C`
inactive

Try this compound too: `CC(C)(N)CO`
inactive

Note, next up: `O=Cc1ccc(F)cc1`
inactive
